Data credit: ChEMBL document CHEMBL1145120

Below, each of the molecules is paired with its reported pKi value.
molecular target: D(3) dopamine receptor (Homo sapiens); assay: Compound was measured for its ability to compete with [3H]spiperone binding to the human Dopamine receptor D3 transfected in CHO cells; assay type: cell-based
Sequence (P35462 whole entry): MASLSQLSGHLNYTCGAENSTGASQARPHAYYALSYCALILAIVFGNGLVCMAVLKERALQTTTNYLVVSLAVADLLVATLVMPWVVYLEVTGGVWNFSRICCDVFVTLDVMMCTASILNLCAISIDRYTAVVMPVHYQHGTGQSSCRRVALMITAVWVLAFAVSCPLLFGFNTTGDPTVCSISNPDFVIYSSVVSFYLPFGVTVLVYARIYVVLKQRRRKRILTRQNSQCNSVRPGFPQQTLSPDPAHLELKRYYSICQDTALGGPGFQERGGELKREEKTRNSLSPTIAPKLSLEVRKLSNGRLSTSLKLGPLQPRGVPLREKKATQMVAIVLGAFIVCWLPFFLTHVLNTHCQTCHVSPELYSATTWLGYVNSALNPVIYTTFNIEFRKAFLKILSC
Keep in mind that pKi stands for -log10 of concentration in molar terms.

molecule	measurement-target	readout-label	test-value
CCCN1CCOC2c3cc(O)ccc3OC[C@H]21 (some centres not stated)	D(3) dopamine receptor (Homo sapiens)	pKi	8.96

Please turn your attention to the following entry.
Data point: CCN1CCC[C@H]1CNC(=O)c1c(O)c(Cl)cc(Cl)c1OC [RACLOPRIDE] ; pKi = 8.43
